# TEST_DESCRIPTION: yeast display, Sf9 membrane polyspecificity reagent, FACS + sequencing; frameworks hold sequencing errors

SEQUENCE_RECORD: QVQLVESGGGLVQAGGSLRLSCAASGSTFWVYAMGWYRQAPGKERELVAGISNSGGNTYYADSVKGRFTISRDNAKNTVYLQMNSLKPEDTAVYYCNVDRGNPVPPSEYWGQGTQVSVSS
polyreactivity (PSR sort gate): low polyreactivity
--
SEQUENCE_RECORD: QVQLVESGGGLVEAGGSLRLSCAASGRTFSPNTMGWYRQAPGKEREFVAAITASGDSTYYADSVKGRFTISRDNAKNTVYLQMNSLKPEDTAVYYCATDSNWYWGFNYWGQGTQVTVSS
polyreactivity (PSR sort gate): low polyreactivity
--
SEQUENCE_RECORD: QVQLVESGGGLVQAGGSLRLSCAASGRNFGPYAMGWSRQAPGKERELVASITRSGGRTYYADSVKGRYTISRDNAKNTVYLQMNSLKPEDTAVYYCAAGGFSKSYYYWGQGTQVTVSS
polyreactivity (PSR sort gate): high polyreactivity
--
SEQUENCE_RECORD: QVQLVESGGGLVQAGGSLRLSCAASGSIFVDYAMGWYRQAPGKERELVAAITSGGRTNYADSVKGRFTISRDNAKNTVYLQMKSLKPEDTAVYYCNKTRYTNYYTTTFDYWGQGTQVTVSS
polyreactivity (PSR sort gate): low polyreactivity
--
SEQUENCE_RECORD: QVQIVESGGGLVQARCSLRLSFSASGYTFNNYAKGWYRQAPGTERELVAAISSSGGSTYFADSVKGRFTISRDNAKNTVYVQMNSLKPEDTAVYYCAARPFGLGDYRGYYYWGQGTQVTVSS
polyreactivity (PSR sort gate): low polyreactivity
--
SEQUENCE_RECORD: QVQLVESGGGLVQAGGSLRLRCAASGSTFQTYAMGWYRQAPGKERELVAAITSGGATNYADSVKGRFTISRDNAKNTVFLQMNFLTPEVTAVYYCAVRLIDQTSDHRLQYDYWGQGTQVTVSS
polyreactivity (PSR sort gate): low polyreactivity
--
SEQUENCE_RECORD: QVQLVESGGGLVQAGGSLRLICAASGRTFRFYTMGWYRQAPGKERELVAGIRQRGGTTYYADSVKGRFTISRDNAKNTVYLQMNSLKPEDTAVYYCAADVYYPFYSPGFDYWGQGTQVTVSS
polyreactivity (PSR sort gate): high polyreactivity
--
SEQUENCE_RECORD: QVQLVESGGGLVQAGGSLRLSCAASGSIFGYYAMGWYRQAPGKERELVAAISWSDGSTYYADSVKGRFTISRDNAKNTVYLQMNMLKPEDTAVYYCAARFTPYITSDDGHYDYWGQGTQVTVSS
polyreactivity (PSR sort gate): low polyreactivity
--
SEQUENCE_RECORD: QVQLVESGGGLVQAGASLRLSCAASGSIFYHNTMGWYRQAPGKERELITYYADSVKRRFTISRDNAKNTVYLQMNSLKPEDTAVYYCAASPVYRTGPGDYDYWGQGTQVTVSS
polyreactivity (PSR sort gate): low polyreactivity
--
SEQUENCE_RECORD: QVQLVESGGCLVQAGGSLRLSCAASGSTLWGYAMGWYRQAPGKERELVAAITSSGGITYYADSVKGRFTISRDNAKNTVYFQMNSLKPEDTAVYFCAVDYYVVGWTYLYYYWGQGTQVTVSS
polyreactivity (PSR sort gate): low polyreactivity
--
SEQUENCE_RECORD: QVQLVESGGGFVQAGGSLRLSCAASGCTFIKYAMGWYTQAPGKEREFVAAITRSGTSTYYADSVKGRFTISRDNAKNTVYLQMNRLKPEDTAVYFCSARYVYNSDRVSERDYWGQGTQVTVSS
polyreactivity (PSR sort gate): high polyreactivity

Reference for the values: the nanobody polyreactivity screen of Harvey et al. (2022)
